These entries and their values trace back to patent US20060193821.

Target: IL-23 (human, p19/p40 heterodimer) (Homo sapiens, UniProt Q9NPF7;P29460 SEQ:20-189,SEQ:23-328)
Sequence (Q9NPF7 20-189, chain 1 of 2): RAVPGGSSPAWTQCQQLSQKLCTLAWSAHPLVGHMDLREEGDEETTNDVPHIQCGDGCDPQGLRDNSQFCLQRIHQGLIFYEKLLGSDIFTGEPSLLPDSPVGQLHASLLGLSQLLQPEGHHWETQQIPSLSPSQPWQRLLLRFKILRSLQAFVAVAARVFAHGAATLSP
Sequence (P29460 23-328, chain 2 of 2): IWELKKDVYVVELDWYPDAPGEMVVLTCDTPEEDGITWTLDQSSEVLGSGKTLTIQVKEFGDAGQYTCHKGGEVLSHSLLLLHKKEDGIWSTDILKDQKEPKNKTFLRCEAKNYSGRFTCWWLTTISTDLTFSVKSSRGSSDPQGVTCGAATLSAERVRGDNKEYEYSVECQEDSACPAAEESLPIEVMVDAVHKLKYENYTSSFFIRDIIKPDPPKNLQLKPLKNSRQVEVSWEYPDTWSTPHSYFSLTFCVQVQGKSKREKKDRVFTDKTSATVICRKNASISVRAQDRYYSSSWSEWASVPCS
Test: filter; SHMCK, tRNA
Conditions: tags: R&D Systems, carrier free
Label Y when Kd < 200 nM; otherwise N.

Bench note: check whether AMX86-F11 (ssRNA, 2'-F C,U) RNA: GGGAAAAGCGAAUCAUACACAAGACCAUCGGACGAGGCGGGUCACCUUUUACGCUUUCGAGCUGGCUCCGCCAGAGACCAACCGAGAA shows Kd below 200 nM
N

Report whether reported Kd is lower than 200 nM (strictly) for AMX86-A11 (ssRNA, 2'-F C,U) RNA: GGGAAAAGCGAAUCAUACACAAGAACGGCUAGGCAUCAAUGGCCAGCAAAAAUAGUCGUGUAAUGCUCCGCCAGAGACCAACCGAGAA
Y

State whether 200 nM exceeds Kd recorded for AMX86-A10 (ssRNA, 2'-F C,U) RNA: GGGAAAAGCGAAUCAUACACAAGAGUAAUGUGGGUCCCGAUGAUUCGCUGUGCGGCGUUUGUAGCUCCGCCAGAGACCAACCGAGAA .
N

Given AMX91-H3 (ssRNA, 2'-F C,U) RNA: GGGAAAAGCGAAUCAUACACAAGACAUUGUGCUUUAUCACGUGGGUGAUAACGACGAAAGUUAUGCUCCGCCAGAGACCAACCGAGAA , is recorded Kd strictly lower than 200 nM?
N

In plain terms, does AMX86-B11 (ssRNA, 2'-F C,U) RNA: GGGAAAAGCGAAUCAUACACAAGAGUAUCAUUCGGCUGGUGGGAGAAAUCUCUGUAGAUAUAGAGCUCCGCCAGAGACCAACCGAGAA come in under 200 nM for Kd?
Y

Just wondering, is Kd of AMX91-C12 (ssRNA, 2'-F C,U) RNA: GGGAAAAGCGAAUCAUACACAAGACGAUAGUAUGACCUUUUGAAAGGCUUCCCGAGCGGUGUUCGCUCCGCCAGAGACCAACCGAGAA below 200 nM?
Y

Problem: For the binder AMX86-B7 (ssRNA, 2'-F C,U) RNA: GGGAAAAGCGAAUCAUACACAAGAAUGAAUUCCGUCCACGGGCGCCCGAUGAUGUCAGUUUUCGGCUCCGCCAGAGACCAACCGAGAA , is Kd under 200 nM?
Y

Please check: Kd for AMX86-G9 (ssRNA, 2'-F C,U) RNA: GGGAAAAGCGAAUCAUACACAAGAUCCCAGCGGUACGUGAGUCUGUUAAAGGCCACCUAAUGUCGCUCCGCCAGAGACCAACCGAGAA , strictly under 200 nM or not?
Y

Report whether reported Kd is lower than 200 nM (strictly) for AMX86-C8 (ssRNA, 2'-F C,U) RNA: GGGAAAAGCGAAUCAUACACAAGAGUCGUGAUGAUUUGGGUUAUGUCAGUUCCCUGUAUGGUUUCGCUCCGCCAGAGACCAACCGAGAA
Y
